B1: Azoarcus group I ribozyme (parent)
chain: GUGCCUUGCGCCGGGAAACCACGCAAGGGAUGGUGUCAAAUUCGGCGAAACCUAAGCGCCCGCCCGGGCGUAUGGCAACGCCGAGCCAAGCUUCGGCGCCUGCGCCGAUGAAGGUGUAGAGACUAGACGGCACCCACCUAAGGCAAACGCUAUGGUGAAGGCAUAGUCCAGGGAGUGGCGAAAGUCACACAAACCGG

Variants of: B1
Assay: reverse-splicing fitness (ratio to wild type); higher = more active; in vitro selection; Mg2+ level not given
Response key: Fulfilled means reverse-splicing fitness >= 0.008; Not fulfilled means reverse-splicing fitness < 0.008.

Prompt: Given A111C A120C A145U C150A U176G , state whether its reverse-splicing fitness is at least 0.008.
Completion: Fulfilled

Prompt: Given A111U A120U A145G C150G U176A , state whether its reverse-splicing fitness is at least 0.008.
Completion: Fulfilled

Prompt: Given C82G A111U A120C A145C C150G C169A U176A , state whether its reverse-splicing fitness is at least 0.008.
Completion: Fulfilled

Prompt: Given C82U A111U A120U A145U C150G C169A U176G , state whether its reverse-splicing fitness is at least 0.008.
Completion: Not fulfilled

Prompt: Given C82U A111G A120U A145U C169A , state whether its reverse-splicing fitness is at least 0.008.
Completion: Not fulfilled

Prompt: Given A145U C150A U176A , state whether its reverse-splicing fitness is at least 0.008.
Completion: Fulfilled

Prompt: Given C82U A120C A145U C169A U176G , state whether its reverse-splicing fitness is at least 0.008.
Completion: Not fulfilled

Prompt: Given C82A A111U C150U U176G , state whether its reverse-splicing fitness is at least 0.008.
Completion: Fulfilled

Prompt: Given C82G A120G A145G C150A , state whether its reverse-splicing fitness is at least 0.008.
Completion: Fulfilled

Prompt: Given C82G A120C A145U C150A , state whether its reverse-splicing fitness is at least 0.008.
Completion: Fulfilled

Prompt: Given C82U A111C U176C , state whether its reverse-splicing fitness is at least 0.008.
Completion: Fulfilled

Prompt: Given C82G A111C A145C C150A U176A , state whether its reverse-splicing fitness is at least 0.008.
Completion: Fulfilled

Prompt: Given C82U A111U A120U A145C C150G U176A , state whether its reverse-splicing fitness is at least 0.008.
Completion: Not fulfilled

Prompt: Given C82G A111C A120G A145G C169G U176A , state whether its reverse-splicing fitness is at least 0.008.
Completion: Fulfilled

Prompt: Given C82G A111U A120G A145C C150U C169A U176C , state whether its reverse-splicing fitness is at least 0.008.
Completion: Fulfilled

Prompt: Given C82A A111U A120U A145C C150G U176A , state whether its reverse-splicing fitness is at least 0.008.
Completion: Not fulfilled

Prompt: Given C82G A111U A120U C169U U176G , state whether its reverse-splicing fitness is at least 0.008.
Completion: Not fulfilled

Prompt: Given C82A A120C A145C C169A U176G , state whether its reverse-splicing fitness is at least 0.008.
Completion: Not fulfilled

Prompt: Given C82G A111C A120C A145U U176C , state whether its reverse-splicing fitness is at least 0.008.
Completion: Fulfilled

Prompt: Given C82A A120C A145G C169U U176G , state whether its reverse-splicing fitness is at least 0.008.
Completion: Not fulfilled
